assay_procedure: mn = molality of the nth substance listed, in mol/kg
experimental_conditions: 293.15 K; 100 kPa; Liquid; Capillary tube (Ostwald / Ubbelohde) method; m1 = 0.3
Attribute: viscosity
measured_parameter: viscosity (mPa·s)

INSERT INTO assay_data (molecule, measured_parameter, measurement) VALUES
  ('C[C@@H](O)[C@H](N)C(=O)O [L-threonine] + O', 'viscosity', 1.105),
  ('N=C(N)NCCC[C@H](N)C(=O)O [L-arginine] + O', 'viscosity', 1.167),
  ('NCC(=O)O [2-aminoacetic acid] + O', 'viscosity', 1.041),
  ('CC(C)[C@H](N)C(=O)O [L-valine] + O', 'viscosity', 1.134),
  ('C[C@H](N)C(=O)O [(S)-2-aminopropanoic acid] + O', 'viscosity', 1.079);

----------
Attribute: viscosity
assay_procedure: mn = molality of the nth substance listed, in mol/kg
experimental_conditions: 323.15 K; 100 kPa; Liquid; Capillary tube (Ostwald / Ubbelohde) method; m1 = 0.5
Numbers after ± are expanded uncertainties.
measured_parameter: viscosity

INSERT INTO assay_data (molecule, measurement) VALUES
  ('C[C@H](N)C(=O)O [(S)-2-aminopropanoic acid] + O', '0.611 ± 0.025 mPa·s'),
  ('C[C@@H](O)[C@H](N)C(=O)O [L-threonine] + O', '0.632 ± 0.026 mPa·s'),
  ('NCC(=O)O [2-aminoacetic acid] + O', '0.591 ± 0.024 mPa·s'),
  ('N=C(N)NCCC[C@H](N)C(=O)O [L-arginine] + O', '0.682 ± 0.028 mPa·s');

----------
Attribute: viscosity
assay_procedure: mn = molality of the nth substance listed, in mol/kg
experimental_conditions: 293.15 K; 100 kPa; Liquid; Capillary tube (Ostwald / Ubbelohde) method; m1 = 0.1
measured_parameter: viscosity (mPa·s)

INSERT INTO measurements (compound, measurement) VALUES
  ('N=C(N)NCCC[C@H](N)C(=O)O [L-arginine] + O', 1.054),
  ('C[C@H](N)C(=O)O [(S)-2-aminopropanoic acid] + O', 1.027),
  ('C[C@@H](O)[C@H](N)C(=O)O [L-threonine] + O', 1.035),
  ('CC(C)[C@H](N)C(=O)O [L-valine] + O', 1.044),
  ('NCC(=O)O [2-aminoacetic acid] + O', 1.014);

----------
assay_procedure: mn = molality of the nth substance listed, in mol/kg
experimental_conditions: 313.15 K; 100 kPa; Liquid; Capillary tube (Ostwald / Ubbelohde) method; m1 = 0.3
measured_parameter: viscosity (mPa·s)

INSERT INTO results (compound, measured_parameter, measurement) VALUES
  ('C[C@@H](O)[C@H](N)C(=O)O [L-threonine] + O', 'viscosity', 0.717),
  ('NCC(=O)O [2-aminoacetic acid] + O', 'viscosity', 0.683),
  ('C[C@H](N)C(=O)O [(S)-2-aminopropanoic acid] + O', 'viscosity', 0.7),
  ('N=C(N)NCCC[C@H](N)C(=O)O [L-arginine] + O', 'viscosity', 0.751),
  ('CC(C)[C@H](N)C(=O)O [L-valine] + O', 'viscosity', 0.731);

----------
assay_procedure: mn = molality of the nth substance listed, in mol/kg
experimental_conditions: 293.15 K; 100 kPa; Liquid; Vibrating tube method; m1 = 0.7
Attribute: mass density
measured_parameter: mass density (kg/m3)

INSERT INTO results (compound, measured_parameter, reading_unit, measurement) VALUES
  ('C[C@@H](O)[C@H](N)C(=O)O [L-threonine] + O', 'mass density', 'kg/m3', 1026.03),
  ('C[C@H](N)C(=O)O [(S)-2-aminopropanoic acid] + O', 'mass density', 'kg/m3', 1017.29),
  ('NCC(=O)O [2-aminoacetic acid] + O', 'mass density', 'kg/m3', 1019.66),
  ('N=C(N)NCCC[C@H](N)C(=O)O [L-arginine] + O', 'mass density', 'kg/m3', 1030);

----------
assay_procedure: mn = molality of the nth substance listed, in mol/kg
experimental_conditions: 293.15 K; 100 kPa; Liquid; Vibrating tube method; m1 = 0.1
Attribute: mass density
measured_parameter: mass density (kg/m3)

INSERT INTO results (compound, measurement) VALUES
  ('NCC(=O)O [2-aminoacetic acid] + O', 1001.39),
  ('N=C(N)NCCC[C@H](N)C(=O)O [L-arginine] + O', 1003.16),
  ('C[C@H](N)C(=O)O [(S)-2-aminopropanoic acid] + O', 1001.06),
  ('C[C@@H](O)[C@H](N)C(=O)O [L-threonine] + O', 1002.4),
  ('CC(C)[C@H](N)C(=O)O [L-valine] + O', 1000.87);

----------
Attribute: viscosity
assay_procedure: mn = molality of the nth substance listed, in mol/kg
experimental_conditions: 303.15 K; 100 kPa; Liquid; Capillary tube (Ostwald / Ubbelohde) method; m1 = 0.6
measured_parameter: viscosity (mPa·s)

INSERT INTO results (compound, measured_parameter, measurement) VALUES
  ('C[C@H](N)C(=O)O [(S)-2-aminopropanoic acid] + O', 'viscosity', 0.921),
  ('N=C(N)NCCC[C@H](N)C(=O)O [L-arginine] + O', 'viscosity', 1.069),
  ('NCC(=O)O [2-aminoacetic acid] + O', 'viscosity', 0.868),
  ('OC[C@@H](O)[C@@H](O[C@H]1O[C@H](CO)[C@@H](O)[C@H](O)[C@H]1O)[C@H](O)[C@@H](O)CO [4-O-α-D-glucopyranosyl-D-glucitol] + O', 'viscosity', 1.353),
  ('C[C@@H](O)[C@H](N)C(=O)O [L-threonine] + O', 'viscosity', 0.967);

----------
assay_procedure: mn = molality of the nth substance listed, in mol/kg
experimental_conditions: 313.15 K; 100 kPa; Liquid; Capillary tube (Ostwald / Ubbelohde) method; m1 = 0.7
Attribute: viscosity
measured_parameter: viscosity (mPa·s)

INSERT INTO measurements (molecule, reading_unit, measurement) VALUES
  ('C[C@@H](O)[C@H](N)C(=O)O [L-threonine] + O', 'mPa·s', 0.811),
  ('C[C@H](N)C(=O)O [(S)-2-aminopropanoic acid] + O', 'mPa·s', 0.768),
  ('NCC(=O)O [2-aminoacetic acid] + O', 'mPa·s', 0.724),
  ('N=C(N)NCCC[C@H](N)C(=O)O [L-arginine] + O', 'mPa·s', 0.903);

----------
Attribute: viscosity
assay_procedure: mn = molality of the nth substance listed, in mol/kg
experimental_conditions: 303.15 K; 100 kPa; Liquid; Capillary tube (Ostwald / Ubbelohde) method; m1 = 0.1
measured_parameter: viscosity (mPa·s)

INSERT INTO assay_data (compound, measured_parameter, reading_unit, measurement) VALUES
  ('C[C@@H](O)[C@H](N)C(=O)O [L-threonine] + O', 'viscosity', 'mPa·s', 0.823),
  ('N=C(N)NCCC[C@H](N)C(=O)O [L-arginine] + O', 'viscosity', 'mPa·s', 0.837),
  ('CC(C)[C@H](N)C(=O)O [L-valine] + O', 'viscosity', 'mPa·s', 0.83),
  ('NCC(=O)O [2-aminoacetic acid] + O', 'viscosity', 'mPa·s', 0.809),
  ('C[C@H](N)C(=O)O [(S)-2-aminopropanoic acid] + O', 'viscosity', 'mPa·s', 0.817);

----------
Attribute: viscosity
assay_procedure: mn = molality of the nth substance listed, in mol/kg
experimental_conditions: 323.15 K; 100 kPa; Liquid; Capillary tube (Ostwald / Ubbelohde) method; m1 = 0.1
± gives the expanded uncertainty stated by the source.
measured_parameter: viscosity

INSERT INTO assay_data (compound, measurement) VALUES
  ('CC(C)[C@H](N)C(=O)O [L-valine] + O', '0.567 ± 0.023 mPa·s'),
  ('NCC(=O)O [2-aminoacetic acid] + O', '0.556 ± 0.023 mPa·s'),
  ('C[C@H](N)C(=O)O [(S)-2-aminopropanoic acid] + O', '0.559 ± 0.023 mPa·s'),
  ('C[C@@H](O)[C@H](N)C(=O)O [L-threonine] + O', '0.563 ± 0.023 mPa·s'),
  ('N=C(N)NCCC[C@H](N)C(=O)O [L-arginine] + O', '0.572 ± 0.023 mPa·s');

----------
assay_procedure: mn = molality of the nth substance listed, in mol/kg
experimental_conditions: 313.15 K; 100 kPa; Liquid; Capillary tube (Ostwald / Ubbelohde) method; m1 = 0.6
Lab note: anything with viscosity below 0.8 mPa·s is marked Met; values at 0.8 mPa·s or higher are marked Not met.

INSERT INTO results (compound, category_label) VALUES
  ('OC[C@@H](O)[C@@H](O[C@H]1O[C@H](CO)[C@@H](O)[C@H](O)[C@H]1O)[C@H](O)[C@@H](O)CO [4-O-α-D-glucopyranosyl-D-glucitol] + O', 'Not met'),
  ('C[C@H](N)C(=O)O [(S)-2-aminopropanoic acid] + O', 'Met'),
  ('N=C(N)NCCC[C@H](N)C(=O)O [L-arginine] + O', 'Not met'),
  ('NCC(=O)O [2-aminoacetic acid] + O', 'Met');
